Target: somatostatin receptors (Rattus norvegicus, UniProt P30680)
Construct: endogenous in cells
Sequence (P30680 whole entry): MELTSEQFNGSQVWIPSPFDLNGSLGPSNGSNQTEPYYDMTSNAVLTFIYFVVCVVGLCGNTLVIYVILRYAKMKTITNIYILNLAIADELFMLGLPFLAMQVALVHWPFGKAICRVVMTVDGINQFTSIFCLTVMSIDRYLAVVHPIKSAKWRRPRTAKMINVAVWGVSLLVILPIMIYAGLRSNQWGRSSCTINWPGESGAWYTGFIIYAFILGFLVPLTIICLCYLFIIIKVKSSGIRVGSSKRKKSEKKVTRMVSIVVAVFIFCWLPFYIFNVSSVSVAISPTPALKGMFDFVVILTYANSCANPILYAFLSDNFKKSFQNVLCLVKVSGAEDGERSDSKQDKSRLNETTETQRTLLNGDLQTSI
Test: Inhibition of binding of (125I-Tyr11)somatostatin-14 to AR42J rat pancreatic tumor cell membranes
Conditions: 0.5 nM (125I-Tyr11)somatostatin-14, 25 min at 30° C., Hill plots
Square brackets hold non-standard residues; d marks the D form. Peptide text beside a SMILES is read from it. * marks the point of attachment. X1 = NCCCC[C@H](NC(=O)[C@H](CS)NC(=O)CNC(=O)CNC(=O)C*)C(N)=O; NMeF = CN[C@@H](Cc1ccccc1)C(=O)O; hCys = N[C@@H](CCS)C(=O)O

{"Compound": "CC(C)[C@@H]1NC(=O)[C@H](CCCCN)NC(=O)[C@@H](Cc2c[nH]c3ccccc23)NC(=O)[C@H](Cc2ccc(O)cc2)NC(=O)[C@H](Cc2ccccc2)N(C)C(=O)[C@H](CCSCC(=O)NCC(=O)NCC(=O)N[C@@H](CS)C(=O)N[C@@H](CCCCN)C(N)=O)NC1=O (cyclo([NMeF]Y[dW]KV[hCys](X1)))", "Ki, nM": 2.5}
{"Compound": "C[C@@H](O)[C@@H]1NC(=O)[C@H](CCCCN)NC(=O)[C@@H](Cc2c[nH]c3ccccc23)NC(=O)[C@H](Cc2ccc(O)cc2)NC(=O)[C@H](Cc2ccccc2)N(C)C(=O)[C@H](CCS)NC1=O [cyclo.(N--CH3)F.YWD KT.Hcy] (cyclo(KT[hCys][NMeF]Y[dW]))", "Ki, nM": 0.26}
